assay: Oral bioavailability in Sprague-Dawley rat at 10 mg/kg; assay type: ADME, organism-based; details: in vivo
Assign 1 whenever bioavailability does not fall below 10%; assign 0 whenever it does.

Smiles input | Cat
Cc1nn(Cc2ccc(F)cc2)c(=O)c2c(O)c3n(c12)[C@@H](C)CN(C(C)C)C3=O | 1
CC(C)N1C[C@H](C)n2c(c(O)c3c(=O)n(Cc4ccc(F)c(Cl)c4)ncc32)C1=O | 1
CCN1C[C@H](C)n2c(c(O)c3c(=O)n(Cc4ccc(F)cc4)nc(C)c32)C1=O | 0
CCN1C[C@H](C)n2c(c(O)c3c(=O)n(Cc4ccc(F)c(Cl)c4)ncc32)C1=O | 1
CCN1C[C@H](C)n2c(c(O)c3c(=O)n(Cc4ccc(F)cc4)ncc32)C1=O | 1
